# ASSAY_METHOD_TEXT: Flavopiridol plasma pharmacokinetics in phase I trial
# Assay type: in vivo, human
# STATED_CONDITIONS: human, plasma, intravenous, Mean Cmax, cycle 1; cohort 8 (doxorubicin 60, flavopiridol 90 (50/40) mg/m^2); n 4
READOUT_KIND: Cmax (µM)
Give a bare numeral; the unit µM is implied.

Would you kindly share the measured Cmax for `CN1CC[C@H](c2c(O)cc(O)c3c(=O)cc(-c4ccccc4Cl)oc23)[C@H](O)C1` ?
3.33

* * *

# Tested on: MPNST cells
# ASSAY_METHOD_TEXT: Colony formation assay
# Assay type: cell-based, human
# STATED_CONDITIONS: Homo sapiens, 24 h
READOUT_KIND: pIC50
By convention, pIC50 is the negative base-10 log of a molar concentration.

{"columns": ["SMILES_CODE", "TARGET", "pIC50"],
 "data": [
  ["CN1CC[C@H](c2c(O)cc(O)c3c(=O)cc(-c4ccccc4Cl)oc23)[C@H](O)C1", "MPNST cells", 6.82]
]}

Kindly consider the entry below.
Could you share what pIC50 was measured for `COc1cccc2c1C(=O)c1c(O)c3c(c(O)c1C2=O)C[C@@](O)(C(=O)CO)C[C@@H]3O[C@H]1C[C@H](N)[C@H](O)[C@H](C)O1` , tested on MPNST cells?
7.82
